Cited source for all entries: paper PMC6272134

Experiment: Phase-solubility test of PTX in GA / ethanol-water solutions
Type: physicochemical
Conditions: ethanol-water mixtures without GA; 0%, 5%, 7.5%, 10% and 25% ethanol in water, without GA; read-out: solubility of PTX in different percentages of ethanol
Description: The phase-solubility test was performed with a previously reported method. An excess quantity of PTX was taken into clean and dry vials containing 1 mL of various concentrations of GA solutions ([…]). […] Ultimately, the samples were filtered through 0.45 μm filters and the concentrations of PTX were detected by high performance liquid chromatography (HPLC; LC-20A, Shimadzu, Japan) (see Section 3.3.6.). All tests were repeated at least three times.
recorded.endpoint: solubility at 48 h

IN: Hello, please tell me recorded solubility at 48 h for this one: CC(=O)O[C@H]1C(=O)[C@@]2(C)[C@H]([C@H](OC(=O)c3ccccc3)[C@]3(O)C[C@H](OC(=O)[C@H](O)[C@@H](NC(=O)c4ccccc4)c4ccccc4)C(C)=C1C3(C)C)[C@]1(OC(C)=O)CO[C@@H]1C[C@@H]2O
OUT: ≤ 30 µg/mL

----------
assay: Phase-solubility test of PTX in GA / ethanol-water solutions; format: physicochemical; conditions: 7.5% ethanol in water with 10 mM GA, 25 °C, aqueous with cosolvent or surfactant or cyclodextrin, thermodynamic from solid; optimal ethanol percentage (7.5%) with GA (10 mM); read-out: PTX solubility
recorded.endpoint: solubility at 48 h (µg/mL)
I only need the number, in µg/mL, no unit after it.

IN: Hello, please tell me recorded solubility at 48 h for this one: CC(=O)O[C@H]1C(=O)[C@@]2(C)[C@H]([C@H](OC(=O)c3ccccc3)[C@]3(O)C[C@H](OC(=O)[C@H](O)[C@@H](NC(=O)c4ccccc4)c4ccccc4)C(C)=C1C3(C)C)[C@]1(OC(C)=O)CO[C@@H]1C[C@@H]2O
OUT: 823

----------
experiment: Phase-solubility test of PTX in GA / ethanol-water solutions; format: physicochemical; settings: 10 mM GA solution in water, aqueous with cosolvent or surfactant or cyclodextrin, thermodynamic from solid; water, in the presence of 10 mM GA, 25 °C; read-out: solubility of PTX
recorded.endpoint: solubility at 48 h (µg/mL)
I only need the number, in µg/mL, no unit after it.

IN: Hello, please tell me recorded solubility at 48 h for this one: CC(=O)O[C@H]1C(=O)[C@@]2(C)[C@H]([C@H](OC(=O)c3ccccc3)[C@]3(O)C[C@H](OC(=O)[C@H](O)[C@@H](NC(=O)c4ccccc4)c4ccccc4)C(C)=C1C3(C)C)[C@]1(OC(C)=O)CO[C@@H]1C[C@@H]2O
OUT: 124
